Assay: Selectivity index, ratio of CC50 for cytotoxicity against male BALB/c mouse Splenocyte cells to IC50 for immunosuppressive activity in male BALB/c mouse splenocyte assessed as reduction in ConA-induced T-cell proliferation
Type: toxicity, cell-based
Details: splenocytes, read-out: Ratio CC50/IC50
readout label: selectivity ratio

> print(dat)
                            chemical.string  experimental.result
1  C=C(CO)[C@H]1CC[C@@]2(C)C1=CC(=O)[C@@]1(C)C[C@H]3O[C@@]21CC(=O)[C@H]3C                > 2.5
2  C=C(CO)[C@H]1CC[C@]2(C)[C@@]34CC(=O)[C@@H](C)[C@@H](C[C@]3(C)C(=O)C[C@@]12O)O4                > 2.6

###

Experiment: Selectivity index, ratio of CC50 for cytotoxicity against male BALB/c mouse Splenocyte cells to IC50 for immunosuppressive activity in male BALB/c mouse splenocyte assessed as reduction in LPS-induced B-cell proliferation
Format: toxicity, cell-based
Settings: splenocytes, read-out: Ratio CC50/IC50
readout label: selectivity ratio

> print(dat)
                            chemical.string      readout.label  experimental.result
1  C=C(CO)[C@H]1CC[C@]2(C)[C@@]34CC(=O)[C@@H](C)[C@@H](C[C@]3(C)C(=O)C[C@@]12O)O4  selectivity ratio                 > 17
2  C=C(CO)[C@H]1CC[C@@]2(C)C1=CC(=O)[C@@]1(C)C[C@H]3O[C@@]21CC(=O)[C@H]3C  selectivity ratio                > 6.3
